Values from ChEMBL document CHEMBL1641424

target: Human immunodeficiency virus type 1 reverse transcriptase (Human immunodeficiency virus 1, UniProt Q72547)
assayReadout: IC50 (µM)

smi | assayReadout | observedMeasurement
O=c1ccn([C@@H]2O[C@H](CNCc3ccccc3Cl)[C@@H](O)[C@H]2O)c(=O)[nH]1 | IC50 | 6.13
O=c1ccn([C@@H]2O[C@H](CNCc3c(F)cccc3Cl)[C@@H](O)[C@H]2O)c(=O)[nH]1 | IC50 | 4.99
O=c1[nH]c(=O)n([C@@H]2O[C@H](CNCc3c(Cl)cccc3Cl)[C@@H](O)[C@H]2O)cc1F | IC50 | 4.84
O=c1ccn([C@@H]2O[C@H](CNCc3c(Cl)cccc3Cl)[C@@H](O)[C@H]2O)c(=O)[nH]1 | IC50 | 4.72
O=c1[nH]c(=O)n([C@@H]2O[C@H](CNCc3ccc(Cl)cc3)[C@@H](O)[C@H]2O)cc1F | IC50 | 3.75
O=c1ccn([C@@H]2O[C@H](CNCc3ccc(Cl)cc3)[C@@H](O)[C@H]2O)c(=O)[nH]1 | IC50 | 2.82
O=c1[nH]c(=O)n([C@@H]2O[C@H](CNCc3ccccc3Cl)[C@@H](O)[C@H]2O)cc1F | IC50 | 3.53
O=c1[nH]c(=O)n([C@@H]2O[C@H](CNCc3c(F)cccc3Cl)[C@@H](O)[C@H]2O)cc1F | IC50 | 3.9
